# system: gelatinase B (UniProt P14780 107-707, limits assumed)
# Sequence (P14780 107-707 limits assumed): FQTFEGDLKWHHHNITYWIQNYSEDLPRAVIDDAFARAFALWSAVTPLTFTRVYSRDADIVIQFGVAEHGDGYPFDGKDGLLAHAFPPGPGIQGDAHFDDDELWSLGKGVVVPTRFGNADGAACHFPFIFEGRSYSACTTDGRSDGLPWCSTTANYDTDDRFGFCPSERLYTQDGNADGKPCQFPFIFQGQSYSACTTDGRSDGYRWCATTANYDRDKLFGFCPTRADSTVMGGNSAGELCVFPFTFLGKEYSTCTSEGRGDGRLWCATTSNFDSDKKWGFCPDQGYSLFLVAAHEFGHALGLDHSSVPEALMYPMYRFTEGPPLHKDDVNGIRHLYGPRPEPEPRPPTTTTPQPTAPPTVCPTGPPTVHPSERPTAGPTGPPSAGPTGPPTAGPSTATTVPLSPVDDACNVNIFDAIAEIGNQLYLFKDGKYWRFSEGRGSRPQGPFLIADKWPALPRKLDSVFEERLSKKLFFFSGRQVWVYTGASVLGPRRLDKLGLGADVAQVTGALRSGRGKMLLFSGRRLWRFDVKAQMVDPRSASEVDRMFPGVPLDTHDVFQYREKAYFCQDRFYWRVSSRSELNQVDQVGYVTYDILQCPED
# test: cell-based or functional assay
*1 amine or outer side, *2 acyl side, *3 side chain or, on linkers, in order; H or OH if unused. [ ]: non-standard residue; d: D form. The star is where a group is joined. Dnp = O=[N+]([O-])c1ccc(*)c([N+](=O)[O-])c1; C(Me) = CSC[C@H](N[*:1])C(=O)[*:2]
assay readout: Selectivity v. Coll-3 (unitless)

binder: Dnp-GPVNLHG-NH2 (SMILES CC(C)C[C@H](NC(=O)[C@H](CC(N)=O)NC(=O)[C@@H](NC(=O)[C@@H]1CCCN1C(=O)CNc1ccc([N+](=O)[O-])cc1[N+](=O)[O-])C(C)C)C(=O)N[C@@H](Cc1c[nH]cn1)C(=O)NCC(N)=O) [Dnp-GPVNLHG-NH2]
readout number: 11
--
binder: Dnp-DEGPMGLK[C(Me)]YLG-NH2 (SMILES CSCC[C@H](NC(=O)[C@@H]1CCCN1C(=O)CNC(=O)[C@H](CCC(=O)O)NC(=O)[C@H](CC(=O)O)Nc1ccc([N+](=O)[O-])cc1[N+](=O)[O-])C(=O)NCC(=O)N[C@@H](CC(C)C)C(=O)N[C@@H](CCCCN)C(=O)N[C@@H](CSC)C(=O)N[C@@H](Cc1ccc(O)cc1)C(=O)N[C@@H](CC(C)C)C(=O)NCC(N)=O) [Dnp-…(Me)YLG-NH2]
readout number: 4
--
binder: Dnp-GPSPFRG[C(Me)]-NH2 (SMILES CSC[C@H](NC(=O)CNC(=O)[C@H](CCCNC(=N)N)NC(=O)[C@H](Cc1ccccc1)NC(=O)[C@@H]1CCCN1C(=O)[C@H](CO)NC(=O)[C@@H]1CCCN1C(=O)CNc1ccc([N+](=O)[O-])cc1[N+](=O)[O-])C(N)=O) [Dnp-GPSPFRGC(Me)-NH2]
readout number: 13

Origin of values: patent US20030229005A1
